Target: T1, cynomolgus monkey serum albumin (cynomolgus monkey, UniProt A2V9Z4 25-608)
T1 construct: Immobilised on SPR chips; also called cynoSA; cynomolgus albumin
Assay: SPR Biacore 8K+ SCK, albumin on chip, pH 7.4
pKd: −log10 of the molar value.
Label true (1) when pKd >= 7; otherwise false (0).

| binder | assigned label |
| --- | --- |
| Alb23 G100A (VHH, VHH alone) VHH: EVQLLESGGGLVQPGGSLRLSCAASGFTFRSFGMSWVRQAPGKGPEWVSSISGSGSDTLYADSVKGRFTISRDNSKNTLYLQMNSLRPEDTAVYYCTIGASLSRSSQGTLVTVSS | true (1) |
| Alb23 L59A (VHH, VHH alone) VHH: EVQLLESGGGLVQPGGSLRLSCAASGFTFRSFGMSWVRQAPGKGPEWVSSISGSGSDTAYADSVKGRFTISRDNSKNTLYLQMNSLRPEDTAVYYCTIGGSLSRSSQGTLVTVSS | true (1) |
| Alb23 M34A (VHH, VHH alone) VHH: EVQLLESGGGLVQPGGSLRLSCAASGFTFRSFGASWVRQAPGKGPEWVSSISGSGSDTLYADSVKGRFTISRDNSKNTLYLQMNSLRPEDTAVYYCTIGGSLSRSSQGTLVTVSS | false (0) |
| Alb23 (VHH, VHH alone, injected in solution; also called VHH-Alb23_Parental (#1); Alb23 parental) VHH: EVQLLESGGGLVQPGGSLRLSCAASGFTFRSFGMSWVRQAPGKGPEWVSSISGSGSDTLYADSVKGRFTISRDNSKNTLYLQMNSLRPEDTAVYYCTIGGSLSRSSQGTLVTVSS | true (1) |
